Listing of entries alongside the reported interaction score.
- Tested System: T1, 4H1449-bA
- T1 chain: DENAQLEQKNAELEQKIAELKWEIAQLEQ
- Test Details: two-hybrid library CCNG1;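 also: natural log of median RNA to DNA barcode read ratio; higher means stronger binding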

{"Binder": "DENAQLEQKIAELKQENAELKWKIAQLEQ [4H1373-bA]", "interaction score": -1.22}
{"Binder": "DENAQLEQKIAELKQEIAELEWENAQLKQ [4H1348-bA]", "interaction score": -0.151}
{"Binder": "DENAQLEQKIAELKQKNAELEWEIAQLEQ [4H1393-bA]", "interaction score": -1.31}
{"Binder": "DENAQLEQKNAELEQKIAELKWEIAQLEQ [4H1449-bA]", "interaction score": -0.613}
{"Binder": "DENAQLEQENAELKQEIAELEWKIAQLKQ [4H1222-bA]", "interaction score": 0.729}
{"Binder": "DENAQLEQKIAELKQEIAELKWKNAQLEQ [4H1359-bA]", "interaction score": -0.804}
{"Binder": "DENAQLEQKIAELEQKNAELKWEIAQLKQ [4H1338-bA]", "interaction score": -0.906}
